# System: CAKI-1 renal
# assayProtocol: NCI-60 one-dose screen, 48 h
# runParameters: 10 µM unless noted
This is part of a sample that, as a whole, favours compounds with a hit. Of some 83,000 tested, about 20% had one in any assay. The source made the active and inactive calls. Rule for the calls: active = growth percent below 10; inactive = the rest.
Outcomes: y = active, n = inactive

>>> print(df.to_string())
                                    molecule  grouplabel
 0  Clc1ccc2c(c1)NC1(CCSc3ccccc31)n1nccc1-2 (stereo unspecified)           n
 1  COc1cc(-c2n[nH]nc2-c2ccc3c(c2)OCCO3)cc(OC)c1OC           n
 2               NC(=O)NC(=O)/C=C/C(=O)OCCCl           n
 3  O=C(NCCc1c[nH]c2ccccc12)C1Cc2ccccc2CN1C(=O)c1ccco1 (stereo unspecified)           n
 4               O=S=Nc1ccc([N+](=O)[O-])cc1           n
 5  CN(C)c1ccc(-c2ccc(-c3ccc(C(=N)N)cn3)o2)cc1           y
 6                   CCCCCCCCCCn1cc[n+](C)c1           n
 7  O=C(NCCCN1CCN(CCCNC(=O)C2CCCCC2)CC1)C1CCCCC1           n
 8    Cc1ccc(-c2csc3nc(C)c(CCCl)c(=O)n23)cc1           n
 9  O=S(=O)(NCCCNc1nccc(-c2c(-c3ccccc3)nc3sccn23)n1)c1ccc(F)cc1           n
10     Nc1c(C(=O)Nc2ccccc2)sc2nc3c(cc12)CCC3           n

* * *

# Test system: NCI-H322M lung
# assayProtocol: NCI-60 one-dose screen, 48 h (100 = growth as untreated, 0 = no growth, -100 = all killed)
# runParameters: 10 µM unless noted
Compounds without any hit were thinned out: in the full panel of roughly 83,000, 20% have a hit.
This listing pairs compounds with measured growth.

compound	growth [%]
CCCCn1c(=O)c(C2CNC(=O)c3ccccc3N2)cc2ccccc21 (stereo unspecified)	111
N=C(N)c1ccc(-c2ccc(-c3ccc(Cl)cc3)o2)nc1	-94.5
CC(Br)C(O)c1cc2c(cc1Br)OCO2 (stereo unspecified)	111
COC1=CC(c2ccc[nH]2)=N/C1=C\c1[nH]c(C)c(C(=O)CCCCC(=O)Oc2ccc3c(c2)CCC2C3CC[C@]3(C)[C@@H](O)CC[C@@H]23)c1C (stereo partly specified)	62.9
Cn1cc(C=O)c2ccccc21	97.8
CCNc1nc(N2CC(=O)Nc3cc(OC)ccc32)c2ccccc2n1	36.6
CCn1cc(C2NC(=O)c3cc(F)ccc3N2)c2cccc(Cl)c21 (stereo unspecified)	45.5
NC(=O)NC(=O)/C=C/C(=O)OCCCl	105
COc1cc(C2C=C(C)N=C3SC=CN32)cc(OC)c1OC (stereo unspecified)	105
C=C1C(=O)O[C@H]2[C@H]1CC/C(COC(=O)NCc1cc(OC)cc(OC)c1)=C\CC[C@@]1(C)O[C@@H]21	73.4
O=C(O)Cc1ccc2c(c1)Cc1cccnc1O2	109
COC(=O)CCCCCN=Cc1c(O)c(O)c(C(C)C)c2cc(C)c(-c3c(C)cc4c(C(C)C)c(O)c(O)c(C=NCCCCCC(=O)OC)c4c3O)c(O)c12	32
COc1cc(OC)c(C(=O)/C=C/c2ccc(C#N)cc2)c(OC)c1	17.3
CCCCNc1nnc(-c2cc(-c3cc4ccccc4o3)nn2-c2ccccc2)o1	87.4
O=C(Nc1ccc(Cl)cc1)c1cc(-c2ccc(F)cc2)c2sc(=O)[nH]c2n1	13.2
Nc1nc(-c2ccccc2)cs1	109
CC(=O)Nc1nc(C(=O)N2N=C(C)/C(=C/c3ccccc3)C2=O)cs1	102
Cc1cc(Nc2nc(-c3ccncc3)nc3ccccc23)n[nH]1	75.7
O=C(CNc1c(Cl)cccc1Cl)Nc1ccc(-c2nc3ccccc3s2)cc1	94.6
COc1cc2c(cc1OC)C1(C)N(CC2)C(=O)OC1(C)C (stereo unspecified)	101
CCCCCCCCCCC/C=C\C[C@H](O)C/C=C1/C(=O)C=C[C@@H]1C/C=C\CCCC(=O)OC	69.8

* * *

# Tested on: NCI-H322M lung
# assayProtocol: NCI-60 one-dose screen, 48 h
# runParameters: 10 µM unless noted
About 83,000 compounds went through this panel and 20% of them were active in at least one assay; those are over-represented in the sample as a whole. The source made the active and inactive calls. The calls were made as follows: active = growth percent below 10; inactive = the rest.
Outcomes: 1.0 (active), 0.0 (inactive)

>>> df
                                    molecule  experimentaltarget  grouplabel
 0  Cc1cc(C)c2c(=O)[nH]c(SCC(=O)Nc3cccc(S(=O)(=O)N(C)C)c3)nc2n1      NCI-H322M lung         0.0
 1           CCSc1nnc(NC(=O)Cc2ccc(Cl)cc2)s1      NCI-H322M lung         0.0
 2  COc1cc2nc(SCc3cc(OC)c(OC)c(OC)c3)n(Cc3ccccc3)c(=O)c2cc1OC      NCI-H322M lung         0.0
 3  O=C1c2ccccc2C(=O)c2c(N=Nc3sc(=O)[nH]c3S)cccc21      NCI-H322M lung         0.0
 4  O=C1NCC(c2cc3ccccc3[nH]c2=O)Nc2ccccc21 (stereo not given)      NCI-H322M lung         0.0
 5    Cc1ccc(-c2csc3nc(C)c(CCCl)c(=O)n23)cc1      NCI-H322M lung         0.0
 6  O=C(NCCc1c[nH]c2ccccc12)C1Cc2ccccc2CN1C(=O)c1ccco1 (stereo not given)      NCI-H322M lung         0.0
 7  CCCCCc1c(C)[nH]c(/C=c2\[nH]/c(=C3/C=c4ccccc4=N3)cc2OC)c1C      NCI-H322M lung         1.0
 8  CCN1C(=O)N(CC)C2Nn3c(s/c(=C\c4cccc(F)c4)c3=O)=NC21 (stereo not given)      NCI-H322M lung         0.0
 9  CC/C=C\C/C=C\C[C@H]1C/C=C2/C(=O)C=C[C@H]2C/C=C\CCC(=O)O1      NCI-H322M lung         0.0
10  Cc1ccc(C2=NN(c3ccc(S(=O)(=O)NC(=O)NCc4ccccc4)cc3)C(c3ccc(N(C)C)cc3)C2)c(C)c1 (stereo not given)      NCI-H322M lung         0.0
11  COc1cc(/C=C2\CCCC3=C2NC(C)=NC3c2cc(OC)c(OC)c(OC)c2)cc(OC)c1OC (stereo not given)      NCI-H322M lung         0.0
12  CC(=O)c1cc(C(=O)c2ccc3c(c2)Sc2ccccc2N3)c2cc(C)ccn12      NCI-H322M lung         0.0
13      Clc1nc(-c2cccnc2)nc2sc3c(c12)CCCCCC3      NCI-H322M lung         0.0
14     CCC(=O)Nc1ccccc1C#C/C=C\C#Cc1ccccc1SC      NCI-H322M lung         0.0
15  CC(=O)Nc1ccc(S(=O)(=O)N2C(=O)CCC2C(=O)Nc2ccccc2)cc1 (stereo not given)      NCI-H322M lung         0.0
16  O=C(N/N=C/c1c(Cl)cccc1Cl)c1ccccc1Nc1ccnc(C(F)(F)F)c1      NCI-H322M lung         0.0
17  CCn1c(=O)c2c(=O)c3c4c(oc3oc2c2ccccc21)C(=O)c1ccccc1C4=O      NCI-H322M lung         0.0
18  COc1ccc(S(=O)(=O)Nc2cc(/C=C\c3cc(OC)c(OC)c(OC)c3)cc(OC)c2OC)cc1OC      NCI-H322M lung         0.0
19  COc1cc(-c2csc(NC(=O)c3cc(C(F)(F)F)cc(C(F)(F)F)c3)n2)cc(OC)c1OC      NCI-H322M lung         0.0

* * *

# System: MDA-MB-435 melanoma
# assayProtocol: NCI-60 one-dose screen, 48 h (100 = growth as untreated, 0 = no growth, -100 = all killed)
# runParameters: 10 µM unless noted
About 83,000 compounds went through this panel and 20% of them were active in at least one assay; those are over-represented in the sample as a whole.
This listing pairs compounds with measured growth.
assayEndpoint: growth (%)

                                    compound  testvalue
 0  C=CCc1cc(Cl)cc2c(OC(C)=O)c(C(C)=O)c(-c3ccccc3)nc12        108
 1  O=C(Cc1n[nH]c(=O)c2ccccc12)OCc1c(Cl)cccc1Cl       84.7
 2  COc1ccc(/C(=N/O)c2cc(OC)c(OC)c(OC)c2)c(OC)c1N      -42.3
 3  O=C(COc1ccccc1)N1N=C(c2ccc(Cl)cc2)CC1c1c[nH]c2ccccc12 (stereo unspecified)       93.8
 4                COc1cc(NC(=O)CCl)ccc(=O)c1       69.8
 5  COc1ccc(-c2cn[nH]c2-c2cc(OC)c3c(c2)OCO3)cc1      -55.4
 6  C[C@]12CC[C@@H]3c4cc(O)c(O)cc4CC[C@H]3[C@@H]1CC[C@@H]2O        -45
 7  CCCCCCCCCCC/C=C\C[C@H](O)C/C=C1/C(=O)C=C[C@@H]1C/C=C\CCCC(=O)OC      -14.5
 8  O=c1oc2cc(OS(=O)(=O)c3ccccc3)c(Cl)cc2c2c1CCCCCC2         90
 9  Nc1c(C(=O)Nc2cccc(C(F)(F)F)c2)sc2nc3c(cc12)C(O)CCC3 (stereo unspecified)      -16.7
10  FC(F)(F)c1cccc(-n2nnc3cnc(Nc4ccc(N5CCCCC5)cc4)nc32)c1       37.5
11  C=CC(=O)N[C@H](/C=C/C(=O)OCC)Cc1ccc(-c2cc(Cl)cc(Cl)c2)cc1       96.1
12  COc1ccc(Cn2cc(COc3cc(/C=C/C(=O)c4cc(OC)c(OC)c(OC)c4)ccc3OC)nn2)cc1       12.5
13  CC(CCc1ccccc1)NC(=O)c1n[nH]c(=O)c2ccccc12 (stereo unspecified)        108
14  CC(=O)C1CCC(C)=CC1=O (stereo unspecified)        103
15  COc1ccc(C(=O)c2cc(OC)c(OC)c(OC)c2)cc1/C=C/C(=O)c1ccc(O)cc1       18.9
16  CC(C)CCN(CCCNc1c2c(nc3ccccc13)CCCC2)CCC(C)C       89.3
17  O=c1cc(C2NCCc3c2[nH]c2ccccc32)c2c(ccc3ccccc32)o1 (stereo unspecified)       81.7
18  O=S(=O)(NCCCNc1cc(-c2cn(-c3ccccc3)nc2-c2cccc(O)c2)ccn1)c1ccc(Br)cc1       9.98
19   ClC1=C(Cl)C(Cl)=C(Cl)C1=Cc1ccc(Cl)cc1Cl      -52.4
20  CC(=O)c1cc(C(=O)c2ccc3c(c2)Sc2ccccc2N3)c2cc(C)ccn12      -19.7
